# Test system: human activated kallikrein enzyme (Homo sapiens, UniProt P03952)
# Sequence (P03952 391-638 limits assumed): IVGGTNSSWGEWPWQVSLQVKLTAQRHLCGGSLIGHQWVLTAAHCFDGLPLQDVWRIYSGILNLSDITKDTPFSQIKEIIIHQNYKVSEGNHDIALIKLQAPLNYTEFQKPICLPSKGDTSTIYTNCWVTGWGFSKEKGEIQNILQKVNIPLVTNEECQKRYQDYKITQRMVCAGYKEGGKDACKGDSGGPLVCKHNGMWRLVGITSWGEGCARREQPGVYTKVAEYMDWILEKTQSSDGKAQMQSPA
# Sequence (P03952 20-390 partner limits assumed): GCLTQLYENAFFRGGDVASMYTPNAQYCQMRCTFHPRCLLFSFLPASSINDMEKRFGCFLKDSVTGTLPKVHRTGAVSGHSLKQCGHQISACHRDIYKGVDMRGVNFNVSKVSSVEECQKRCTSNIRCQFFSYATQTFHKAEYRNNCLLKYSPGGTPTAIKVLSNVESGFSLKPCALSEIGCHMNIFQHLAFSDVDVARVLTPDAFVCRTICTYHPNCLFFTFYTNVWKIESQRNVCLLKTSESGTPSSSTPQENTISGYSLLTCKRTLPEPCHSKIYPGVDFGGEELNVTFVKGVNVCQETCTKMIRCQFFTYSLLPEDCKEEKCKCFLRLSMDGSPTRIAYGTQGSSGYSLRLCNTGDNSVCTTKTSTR
# Experiment notes: Plasma kallikrein inhibition, fluorogenic PFR-AMC substrate, 500 pM activated kallikrein format
# Format: biochemical
# Measurement setup: 500 pM activated kallikrein, 300 uM PFR-AMC, 30 min preincubation, 10 min reaction; read-out: Primary Dose Response Assay: Average EC50
Test readout: EC50

Look over these answered cases.
Entry Cc1ccnc([C@H]2C[C@@H]2C(=O)Nc2cc(NC(C)c3cn4cc(C5CC5)cc(N5CC(=O)N(CCOCc6ccccc6)C5=O)c4n3)nc(C3CC3)n2)n1 (stereo partly drawn) : EC50 on human activated kallikrein enzyme (Homo sapiens, UniProt P03952) = 10 to 100 nM

Entry O=C(Nc1cc(NCc2cn3cc(C4CC4)cc(N4CCNCC4)c3n2)ncn1)[C@H]1C[C@@H]1c1cccc(Cl)c1 : EC50 on human activated kallikrein enzyme (Homo sapiens, UniProt P03952) = < 1 nM

Entry O=C(Nc1cc(NCc2cn3cc(C4CC4)cc(N4CC(F)C4)c3n2)ncn1)[C@H]1C[C@@H]1c1cccc(Cl)c1 : EC50 on human activated kallikrein enzyme (Homo sapiens, UniProt P03952) = 10 to 100 nM

Entry Cc1ccnc([C@H]2C[C@@H]2C(=O)Nc2cc(NCc3cn4cc(C5CC5)cc(N5CCOC5=O)c4n3)ncn2)n1 (racemic) [Example 390] : EC50 on human activated kallikrein enzyme (Homo sapiens, UniProt P03952) = < 1 nM

Entry CN(C)C(=O)c1cc(C2CC2)cn2cc(CNc3cc(NC(=O)[C@H]4C[C@@H]4c4cccc(Cl)c4)ncn3)nc12 : EC50 on human activated kallikrein enzyme (Homo sapiens, UniProt P03952) = < 1 nM

***
Entry CC[C@@H](Nc1cc(NC(=O)[C@H]2C[C@@H]2c2nccc(C)n2)nc(C)n1)c1cn2cc(C3CC3)cc(N3CC(=O)N(C)C3=O)c2n1 : EC50 on human activated kallikrein enzyme (Homo sapiens, UniProt P03952) = < 1 nM

Entry Cc1ccnc([C@H]2C[C@@H]2C(=O)Nc2ncc(F)c(NCc3cn4cc(C5CC5)cc(N5CC(=O)N(CCO)C5=O)c4n3)n2)n1 (racemic) : EC50 on human activated kallikrein enzyme (Homo sapiens, UniProt P03952) = < 1 nM

Entry Cc1ccnc([C@H]2C[C@@H]2C(=O)Nc2nncc(N(C)Cc3cn4cc(C5CC5)cc(N5CC(=O)N(C)C5=O)c4n3)n2)n1 : EC50 on human activated kallikrein enzyme (Homo sapiens, UniProt P03952) = < 1 nM

Entry O=C(Nc1cc(NCc2cn3cc(C4CC4)ccc3n2)ncn1)[C@H]1C[C@@H]1c1nccc(Cl)n1 (racemic) : EC50 on human activated kallikrein enzyme (Homo sapiens, UniProt P03952) = < 1 nM

Entry COc1ccc(C#N)c([C@H]2C[C@@H]2C(=O)Nc2cc(NCc3cn4cc(C5CC5)ccc4n3)ccn2)c1 (racemic) [Example I-206] : EC50 on human activated kallikrein enzyme (Homo sapiens, UniProt P03952) = 10 to 100 nM

Entry Nc1c(Cl)cccc1[C@H]1C[C@@H]1C(=O)Nc1cc(NCc2cn3cc(C4CC4)ccc3n2)ncn1 (racemic) : EC50 on human activated kallikrein enzyme (Homo sapiens, UniProt P03952) = > 6000 nM

Attribution: patent US20240228488A1
